B1: FUT8 (parent)
chain: YAHQPRTADEIPMEPGDIIGVAGN

- Variants of: B1
- experiment: protein stability index of a GFP-peptide fusion (GPS, HEK-293T) (PSI 1-6); higher = more stable;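 further: lentivirally expressed fusions sorted by FACS into six bins by GFP to DsRed ratio, PSI derived from sequencing read proportions per bin multiplied by bin number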
- measurement_parameters: c terminus: a fixed tail appended
outcome_measure: protein stability index
// response body must contain only the number

// protein stability index lookup, variant = E14V , result: 3.58

The reported protein stability index of the variant I19L was 3.65

Entry P12S ; protein stability index = 4.08

Sample M13D ; protein stability index observed: 4.82

Summary for this variant, N24W : protein stability index is 2.66

The reported value for A2Q in terms of protein stability index is 4.09

Recorded protein stability index (variant A2P ): 4.43

Per the records, this variant ( I19W ) has protein stability index equal to 1.93

The variant identified as I18G registered its protein stability index at 3.84

Quick note, protein stability index for Q4T landed at 3.72

// protein stability index value for I18W : 3.11

Short answer for A2S : protein stability index was 4.53

protein stability index reading for H3F : 3.66

Per the record, A8E has protein stability index of 4.4

Per the records, this variant ( I18E ) has protein stability index equal to 4.19

Lab book: protein stability index of A2T noted as 4.49

For D17G the variant record lists protein stability index as 3.38

// protein stability index value for H3N : 4.43

protein stability index recorded for this variant, V21C , is 4

get_value(item= G20E , readout=protein stability index) returns 4.48

Lab note: measured protein stability index of P5D was 4.93

Short answer for T7M : protein stability index was 3.68

In plain terms, G20M has a documented protein stability index of 4.11

Field protein stability index (entry Y1A ) reads 5.22

Reported protein stability index for G23W was 2.67

Note to self: protein stability index recorded for P15G was 4.16

Looking up A8F , I see its protein stability index listed as 3.48

// protein stability index lookup, variant = N24V , result: 3.61

The reported protein stability index of the variant P5F was 3.11

Value of protein stability index reported for the variant A22H is 3.97

protein stability index for M13W is 3.08

// protein stability index lookup, variant = G20P , result: 4.47

Measured protein stability index, H3A : 4.56

Note to self: protein stability index recorded for I19F was 3.78

Please fill in: protein stability index reported for G20W = 2.08

T7C yielded protein stability index of 2.73

response.value for Q4G (field: protein stability index) = 3.52

Per the record, P12Q has protein stability index of 4.47

Per the records, this variant ( I11Y ) has protein stability index equal to 3.93

Form: variant = A8G ; protein stability index = 4.19

Please fill in: protein stability index reported for I18F = 3.55

Short answer for P12T : protein stability index was 4.09

Record summary for H3R : reported protein stability index = 3.44

variant A2D , protein stability index observed: 5.06

Measured protein stability index, Y1S : 4.88

Reported protein stability index of T7W : 2.46

I11R yielded protein stability index of 4.07

Briefly, protein stability index measured for A22Q : 4.31

Entry under test: P5Q . Its protein stability index was 4.12

Summary for this variant, G20I : protein stability index is 3.26

Short answer for N24A : protein stability index was 3.95

Documented protein stability index of P5E : 4.62

response.value for G23M (field: protein stability index) = 3.7

What the record says about M13L : protein stability index is 4.1

# protein stability index (variant: I18H ) is 3.71

Just so you know, measured protein stability index for I18M came out at 4.21

Just so you know, measured protein stability index for V21W came out at 3.03

According to the records, this variant G23R displays protein stability index of 3.31

protein stability index for T7F is 2.37

Reported protein stability index ( D9H ) = 3.67

Summary for this variant, D9R : protein stability index is 3.41

// R6M : protein stability index value = 3.84

Lab book: protein stability index of E14H noted as 3.5

The measured protein stability index associated with P5I reads 3.4

Entry under test: I19P . Its protein stability index was 4.61

The recorded protein stability index for G23V is 3.58

Reported protein stability index for E14A was 3.41

Notebook: G16C , protein stability index read as 3.5

Data point: V21D ; protein stability index = 4.62

Data point: H3V ; protein stability index = 4.46

Short answer for D17F : protein stability index was 2.03

So for A22W , the logged protein stability index turned out to be 2.41

protein stability index measured on G16T = 3.86

Entry under test: D9P . Its protein stability index was 3.33

For P15V the variant record lists protein stability index as 3.58

So, G16R ? Its protein stability index was 3.66

Entry R6C , protein stability index reported as 4.05

According to the records, this variant A2Y displays protein stability index of 4.3

Summary for this variant, P15L : protein stability index is 3.2

The variant listed as I11H has a reported protein stability index of 4.06

The recorded protein stability index for entry V21M equals 3.68

Per the records, this variant ( D17E ) has protein stability index equal to 4.24

Field protein stability index (entry E14Q ) reads 3.47

Sample P15R ; protein stability index observed: 4.23

Recorded protein stability index (variant G16W ): 2.12

I19N yielded protein stability index of 4.72

# variant V21P ; its protein stability index = 4.13

Measured protein stability index, H3E : 4.87

get_value(item= G16E , readout=protein stability index) returns 4.26

The reported value for I11G in terms of protein stability index is 3.98

Value of protein stability index reported for the variant V21Q is 4.22
